molecular target: human GPCR sphingosine 1-phosphate receptor 1 (S1PR1) (Homo sapiens, UniProt P21453); test: S1PR1 selectivity assay (Ca2+ flux, antagonist); conditions: S1P1 antagonist EC50, CHO cells overexpressing human S1PR1 and Gq protein
Sequence (P21453 whole entry): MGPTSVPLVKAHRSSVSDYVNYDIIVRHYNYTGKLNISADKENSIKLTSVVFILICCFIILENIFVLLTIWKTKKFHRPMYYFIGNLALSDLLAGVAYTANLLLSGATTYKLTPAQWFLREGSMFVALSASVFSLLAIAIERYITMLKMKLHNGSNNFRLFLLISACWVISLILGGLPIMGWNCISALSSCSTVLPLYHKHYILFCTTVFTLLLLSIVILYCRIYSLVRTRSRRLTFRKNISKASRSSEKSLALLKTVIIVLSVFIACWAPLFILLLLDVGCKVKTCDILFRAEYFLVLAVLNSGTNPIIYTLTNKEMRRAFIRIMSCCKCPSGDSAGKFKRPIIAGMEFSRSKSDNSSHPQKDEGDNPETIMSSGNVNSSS
pEC50: −log10 of the molar value.

{"MOLECULE": "Cc1cc(CNC(=O)Nc2cc(Cl)nc(OCC(F)F)c2)nnc1-c1cn(C)nc1C(F)(F)F", "QUALIFIER SIGN": "=", "pEC50": 5.31}
{"MOLECULE": "Cc1cn(-c2nnc(CNC(=O)Nc3cc(Cl)nc(OCC(F)F)c3)cc2C)c(C)n1", "QUALIFIER SIGN": "≤", "pEC50": 4.70}
{"MOLECULE": "CCOc1cc(NC(=O)NCc2cc(C)c(N3CCCc4nn(C)cc43)nn2)cc(C(F)(F)F)n1", "QUALIFIER SIGN": "=", "pEC50": 5.18}
{"MOLECULE": "CCOc1cc(NC(=O)NCc2cc(C)c(N3CC(C)O[C@H](C)C3)nn2)cc(C(F)(F)F)n1 (stereo in doubt)", "QUALIFIER SIGN": "=", "pEC50": 5.18}
{"MOLECULE": "CCOc1cc(NC(=O)NC(C)c2cc(C)c(-c3cn(C)nc3C(F)(F)F)nn2)cc(Cl)n1 (stereo not drawn)", "QUALIFIER SIGN": "≤", "pEC50": 4.70}
{"MOLECULE": "CCOc1cc(NC(=O)NCc2cc(C)c(-c3cn(C)nc3C(F)(F)F)nn2)cc(C#N)n1", "QUALIFIER SIGN": "=", "pEC50": 5.18}
{"MOLECULE": "Cc1cc(CNC(=O)Nc2cc(OCC3COCCO3)nc(C(F)(F)F)c2)nnc1-c1cn(C)nc1C(F)(F)F (stereo not drawn)", "QUALIFIER SIGN": "≤", "pEC50": 4.70}
{"MOLECULE": "CCOc1cc(NC(=O)NCc2cc(C)c(-c3cn(C4CCOC4)nc3C(F)(F)F)nn2)cc(C(F)(F)F)n1 (stereo not drawn)", "QUALIFIER SIGN": "=", "pEC50": 5.23}
{"MOLECULE": "CCOc1nc(C#N)cc(NC(=O)NCc2cc(C)c(-c3cn(C)nc3C(F)(F)F)nn2)c1C", "QUALIFIER SIGN": "=", "pEC50": 5.18}
{"MOLECULE": "CCOc1cc(NC(=O)NCc2cc(C)c(-c3cn(CC4COCCO4)nc3C(F)(F)F)nn2)cc(C(F)(F)F)n1 (stereo not drawn)", "QUALIFIER SIGN": "≤", "pEC50": 4.70}
{"MOLECULE": "CCOc1cc(NC(=O)NCc2cc(C)c(-c3cn(C)nc3C(F)(F)F)nn2)cc(C2CC2)n1", "QUALIFIER SIGN": "=", "pEC50": 5.18}
{"MOLECULE": "CCOc1cc(NC(=O)NCc2cc(C)c(-c3cn(COC)nc3C(F)(F)F)nn2)cc(Cl)n1", "QUALIFIER SIGN": "=", "pEC50": 5.18}
{"MOLECULE": "CCOc1nc(Cl)cc(NC(=O)NCc2cc(C)c(-c3cn(C)nc3C(F)(F)F)nn2)n1", "QUALIFIER SIGN": "≤", "pEC50": 4.70}
{"MOLECULE": "CCOc1nc(C)cc(NC(=O)NCc2cc(C)c(-c3cn(C)nc3C(F)(F)F)nn2)c1C", "QUALIFIER SIGN": "=", "pEC50": 4.78}
{"MOLECULE": "CCOc1cc(NC(=O)NCc2cc(C)c(-c3cn(CCOC)nc3C(F)(F)F)nn2)cc(C(F)(F)F)n1", "QUALIFIER SIGN": "=", "pEC50": 5.40}

These entries and their values trace back to patent US20190388421A1.
